Molecular target: TGF-β1 (Roche)
Sequence (P01137 279-390): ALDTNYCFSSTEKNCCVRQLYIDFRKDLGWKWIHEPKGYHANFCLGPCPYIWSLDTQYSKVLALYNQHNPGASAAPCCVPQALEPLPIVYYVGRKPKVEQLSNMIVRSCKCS
Assay: cell-based or functional assay
Measured % Inhibition (Mv-1-Lu cell line growth reestablishment), listed per entry.
Write the number in % without appending the unit.

Take a look at these entries with their results.
[
  {
    "binder": "IPRSSWYERA [truncated peptide SEQ ID NO: 31 (T8)]",
    "quantitative.readout": 3.4
  },
  {
    "binder": "PRSSWYERA [truncated peptide SEQ ID NO: 32 (T9)]",
    "quantitative.readout": 3.8
  },
  {
    "binder": "KRIWFIPRSSWY [truncated peptide SEQ ID NO: 34 (T11)]",
    "quantitative.readout": 34.4
  },
  {
    "binder": "KRIWFIPRS [truncated peptide SEQ ID NO: 36 (T13)]",
    "quantitative.readout": 6.2
  },
  {
    "binder": "FIPRSSWYERA [truncated peptide SEQ ID NO: 30 (T7)]",
    "quantitative.readout": -0.3
  },
  {
    "binder": "WFIPRSSWYERA [truncated peptide SEQ ID NO: 29 (T6)]",
    "quantitative.readout": 2.7
  },
  {
    "binder": "RIWFIPRSSWYER [truncated peptide SEQ ID NO: 25 (T2)]",
    "quantitative.readout": 6.2
  }
]

Now for the binder whose % Inhibition (Mv-1-Lu cell line growth reestablishment) we want.
Exercise: Give its % Inhibition (Mv-1-Lu cell line growth reestablishment) value. Item: RIWFIPRSSWYERA [truncated peptide SEQ ID NO: 24 (T1)]
Key: 9.4
